EXPERIMENTAL DETAILS: Restrictive medium S. cerevisiae growth inhibition, OD615, pilot screen of yeast lifespan reduction project, restrictive growth control (AID 706);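 note: modified DeaD lifespan yeast strain shifted to restrictive glucose medium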
PARTICULARS: OD615, 48 h, at 10 µM, stronger effect = higher value
Listing of recorded growth inhibition by entry.

| COMPOUND | growth inhibition / % |
| --- | --- |
| CCOc1ccc2[nH]cc(S(=O)(=O)c3ccc(F)cc3)c(=O)c2c1 | -19.8 |
| CC(=O)Nc1cc(NC(C)=O)c(CC(C)C)s1 | 2.99 |
| COc1ccc(C(=O)OCCN2C(=O)c3ccccc3C2=O)cc1OC | 3.49 |
| Cc1ccc(S(=O)(=O)Nc2nc(C)cc(NCCN)n2)cc1 | -2.19 |
| c1ccc(CSc2nnc3c(n2)OC(c2ccco2)Nc2ccccc2-3)cc1 (stereo unspecified) | 2.27 |
| Cc1ccc(-c2nc(S(=O)(=O)c3ccc(F)cc3)c(SCC(=O)NCC3CCCO3)o2)cc1 (stereo unspecified) | 1.93 |
| CN(Cc1ccccc1)c1nnc(N)s1 | -3.49 |
| C=C(C)Cn1c(CCCNC(=O)CCC)nc2ccccc21 | 7.12 |
| CCC(=O)N1CCc2cc(Br)cc(S(=O)(=O)N3CCN(c4ccccn4)CC3)c21 | -9.5 |
| CCNc1cc2oc(=O)c(CN3CCOCC3)c(C)c2cc1C | 6.97 |
| c1ccc(-c2noc(CSc3nnnn3-c3ccccc3)n2)cc1 | 22.4 |
